Taken from ChEMBL document CHEMBL1154408.

Parameter MIC: see the listing below.
Tested on: Acinetobacter haemolyticus
Assay: Antibacterial activity against Acinetobacter haemolyticus expressing carbapenemase-encoding blaOXA-40 gene by Etest method
Assay type: functional
Measured Endpoint: MIC (µg/mL)

Molecule | Measured Endpoint | Value Operator | Reading
CC1(C)S[C@@H]2[C@H](NC(=O)[C@H](N)c3ccc(O)cc3)C(=O)N2[C@H]1C(=O)O | MIC | ≥ | 256
C[C@H]1[C@H](NC(=O)/C(=N\OC(C)(C)C(=O)O)c2csc(N)n2)C(=O)N1S(=O)(=O)O | MIC | = | 4
CC(C)(O/N=C(\C(=O)N[C@@H]1C(=O)N2C(C(=O)[O-])=C(C[n+]3ccccc3)CS[C@H]12)c1csc(N)n1)C(=O)O | MIC | = | 4
CC1(C)S[C@@H]2[C@H](NC(=O)[C@H](C(=O)O)c3ccsc3)C(=O)N2[C@H]1C(=O)O | MIC | ≥ | 256
CO[C@@]1(NC(=O)Cc2cccs2)C(=O)N2C(C(=O)O)=C(COC(N)=O)CS[C@@H]21 | MIC | = | 32
C[C@@H](O)[C@H]1C(=O)N2C(C(=O)O)=C(SCCNC=N)C[C@H]12 [IMIPENEM ANHYDROUS] | MIC | ≥ | 32
C[C@@H](O)[C@H]1C(=O)N2C(C(=O)O)=C(S[C@@H]3CN[C@H](C(=O)N(C)C)C3)[C@H](C)[C@H]12 | MIC | ≥ | 32
CO/N=C(\C(=O)N[C@@H]1C(=O)N2C(C(=O)[O-])=C(C[N+]3(C)CCCC3)CS[C@H]12)c1csc(N)n1 | MIC | = | 4
CCN1CCN(C(=O)N[C@@H](C(=O)N[C@@H]2C(=O)N3[C@@H]2SC(C)(C)[C@@H]3C(=O)O)c2ccccc2)C(=O)C1=O | MIC | ≥ | 256
